# tested.on: Peregrin (Homo sapiens)
# Sequence (P55201 whole entry): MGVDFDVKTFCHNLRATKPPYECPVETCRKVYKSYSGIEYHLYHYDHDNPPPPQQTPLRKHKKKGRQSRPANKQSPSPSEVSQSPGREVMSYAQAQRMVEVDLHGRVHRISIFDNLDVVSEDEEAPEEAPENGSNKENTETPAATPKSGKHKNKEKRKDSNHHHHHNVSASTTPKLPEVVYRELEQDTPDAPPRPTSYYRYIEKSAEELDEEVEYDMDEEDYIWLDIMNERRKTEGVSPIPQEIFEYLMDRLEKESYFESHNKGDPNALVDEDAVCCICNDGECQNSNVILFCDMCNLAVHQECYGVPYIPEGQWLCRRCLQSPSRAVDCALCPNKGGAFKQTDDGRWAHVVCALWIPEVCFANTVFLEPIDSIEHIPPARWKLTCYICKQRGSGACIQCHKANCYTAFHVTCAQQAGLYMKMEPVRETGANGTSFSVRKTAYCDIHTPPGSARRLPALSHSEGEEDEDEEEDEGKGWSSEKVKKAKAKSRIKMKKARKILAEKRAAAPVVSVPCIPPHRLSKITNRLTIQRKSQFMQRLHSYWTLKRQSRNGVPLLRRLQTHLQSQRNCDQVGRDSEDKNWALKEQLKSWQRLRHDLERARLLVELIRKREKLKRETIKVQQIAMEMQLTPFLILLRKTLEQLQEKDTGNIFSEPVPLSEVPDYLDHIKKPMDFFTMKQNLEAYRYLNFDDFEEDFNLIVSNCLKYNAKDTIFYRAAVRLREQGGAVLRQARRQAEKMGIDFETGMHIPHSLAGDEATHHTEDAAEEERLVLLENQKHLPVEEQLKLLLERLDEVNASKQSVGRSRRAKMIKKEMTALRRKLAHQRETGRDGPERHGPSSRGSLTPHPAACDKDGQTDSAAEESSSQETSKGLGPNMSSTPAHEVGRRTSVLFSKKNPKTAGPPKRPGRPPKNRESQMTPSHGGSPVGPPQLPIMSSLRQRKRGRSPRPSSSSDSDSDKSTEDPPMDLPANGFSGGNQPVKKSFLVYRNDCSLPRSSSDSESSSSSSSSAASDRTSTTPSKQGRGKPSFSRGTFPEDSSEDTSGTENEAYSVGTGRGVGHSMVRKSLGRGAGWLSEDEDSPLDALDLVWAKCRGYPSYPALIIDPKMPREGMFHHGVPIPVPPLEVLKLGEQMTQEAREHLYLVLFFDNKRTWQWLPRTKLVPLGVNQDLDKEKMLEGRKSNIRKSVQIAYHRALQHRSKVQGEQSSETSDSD
pKd: −log10 of the molar value.
readout.kind: pKd

[
  {
    "compound.structure": "COc1cc(C#N)ccc1S(=O)(=O)Nc1ccc2c(c1)cc(C)c(=O)n2C",
    "readout.kind": "pKd",
    "obs.value": 7.51
  }
]

---

Quick reference for Kd among some compounds
# tested.on: CREB-binding protein (Homo sapiens, UniProt Q92793)
# Sequence (Q92793 whole entry): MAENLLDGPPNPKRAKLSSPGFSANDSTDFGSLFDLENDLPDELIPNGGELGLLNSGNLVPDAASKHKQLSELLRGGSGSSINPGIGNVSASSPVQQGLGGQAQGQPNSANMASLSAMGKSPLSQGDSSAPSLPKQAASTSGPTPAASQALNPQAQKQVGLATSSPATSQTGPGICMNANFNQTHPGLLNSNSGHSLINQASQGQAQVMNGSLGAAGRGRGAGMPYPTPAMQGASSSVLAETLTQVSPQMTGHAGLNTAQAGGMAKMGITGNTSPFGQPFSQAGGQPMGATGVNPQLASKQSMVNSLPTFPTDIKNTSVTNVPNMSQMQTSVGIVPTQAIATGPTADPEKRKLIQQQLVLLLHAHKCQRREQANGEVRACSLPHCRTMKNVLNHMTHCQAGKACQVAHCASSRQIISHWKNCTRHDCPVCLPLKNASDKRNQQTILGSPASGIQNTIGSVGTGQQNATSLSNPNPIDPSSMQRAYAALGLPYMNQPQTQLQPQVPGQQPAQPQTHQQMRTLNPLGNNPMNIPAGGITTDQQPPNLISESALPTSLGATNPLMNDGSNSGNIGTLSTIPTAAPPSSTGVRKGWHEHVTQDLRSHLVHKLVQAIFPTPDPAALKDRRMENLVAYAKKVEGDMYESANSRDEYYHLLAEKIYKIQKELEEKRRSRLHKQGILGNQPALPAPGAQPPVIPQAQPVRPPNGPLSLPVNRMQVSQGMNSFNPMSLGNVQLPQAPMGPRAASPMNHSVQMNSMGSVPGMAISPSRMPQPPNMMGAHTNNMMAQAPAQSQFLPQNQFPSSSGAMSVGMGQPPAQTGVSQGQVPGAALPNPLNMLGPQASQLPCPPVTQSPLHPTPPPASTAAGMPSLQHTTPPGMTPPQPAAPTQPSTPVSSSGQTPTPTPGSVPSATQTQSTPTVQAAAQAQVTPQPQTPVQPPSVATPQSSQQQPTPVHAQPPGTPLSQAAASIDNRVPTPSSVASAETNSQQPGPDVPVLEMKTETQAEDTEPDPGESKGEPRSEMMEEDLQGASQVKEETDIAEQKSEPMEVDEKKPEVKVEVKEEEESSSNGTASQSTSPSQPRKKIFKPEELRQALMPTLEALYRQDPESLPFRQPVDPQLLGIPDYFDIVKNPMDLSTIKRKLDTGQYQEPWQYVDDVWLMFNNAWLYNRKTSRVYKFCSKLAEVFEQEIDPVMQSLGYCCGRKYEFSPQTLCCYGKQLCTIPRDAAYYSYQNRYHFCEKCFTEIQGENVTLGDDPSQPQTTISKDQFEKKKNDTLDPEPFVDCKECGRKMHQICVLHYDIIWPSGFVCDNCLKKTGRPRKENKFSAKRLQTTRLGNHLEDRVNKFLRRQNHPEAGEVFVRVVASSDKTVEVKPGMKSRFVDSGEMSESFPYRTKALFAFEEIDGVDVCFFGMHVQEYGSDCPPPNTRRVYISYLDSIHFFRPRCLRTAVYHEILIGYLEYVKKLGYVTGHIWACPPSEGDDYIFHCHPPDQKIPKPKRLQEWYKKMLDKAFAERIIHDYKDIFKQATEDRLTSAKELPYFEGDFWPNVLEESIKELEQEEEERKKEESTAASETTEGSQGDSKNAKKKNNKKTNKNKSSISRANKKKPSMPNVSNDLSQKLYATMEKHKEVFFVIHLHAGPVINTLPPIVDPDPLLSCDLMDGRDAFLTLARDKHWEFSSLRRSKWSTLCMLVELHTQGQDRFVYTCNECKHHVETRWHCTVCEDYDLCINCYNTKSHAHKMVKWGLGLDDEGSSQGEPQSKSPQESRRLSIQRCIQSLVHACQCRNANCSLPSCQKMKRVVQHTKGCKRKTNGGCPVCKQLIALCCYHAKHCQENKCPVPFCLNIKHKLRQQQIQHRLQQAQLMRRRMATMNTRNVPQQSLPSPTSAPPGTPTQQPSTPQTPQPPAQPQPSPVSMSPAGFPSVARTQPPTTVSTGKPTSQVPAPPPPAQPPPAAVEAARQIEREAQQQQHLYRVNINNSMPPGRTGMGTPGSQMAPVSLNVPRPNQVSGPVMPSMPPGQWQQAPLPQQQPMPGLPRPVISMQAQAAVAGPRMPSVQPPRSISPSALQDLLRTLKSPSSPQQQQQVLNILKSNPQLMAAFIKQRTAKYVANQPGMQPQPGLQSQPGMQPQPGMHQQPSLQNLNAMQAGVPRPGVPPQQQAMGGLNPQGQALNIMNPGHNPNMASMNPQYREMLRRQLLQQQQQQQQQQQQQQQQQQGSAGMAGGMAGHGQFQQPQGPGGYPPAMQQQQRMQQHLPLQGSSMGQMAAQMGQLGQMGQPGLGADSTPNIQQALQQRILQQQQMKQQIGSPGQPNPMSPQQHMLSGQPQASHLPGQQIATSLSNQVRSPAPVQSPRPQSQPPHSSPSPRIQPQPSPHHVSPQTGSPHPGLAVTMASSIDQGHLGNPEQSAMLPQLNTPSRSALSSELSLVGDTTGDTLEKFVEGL
# test: Binding affinity to human CREBBP bromodomain by isothermal titration calorimetry
readout.kind: Kd (µM)

[
  {
    "compound.structure": "COc1ccc(CCc2nc3cc(-c4c(C)noc4C)ccc3n2CCN2CCOCC2)cc1F",
    "readout.kind": "Kd",
    "obs.value": 0.022
  },
  {
    "compound.structure": "COc1ccc(CCc2cc3cc(-c4c(C)noc4C)ccc3n2CCN2CCOCC2)cc1F",
    "readout.kind": "Kd",
    "obs.value": 0.021
  }
]
